Measured kon values are reported for all entries that follow.
- system: T1, recombinant human HER2 extracellular domain protein (human, UniProt P04626 23-652)
- T1 construct: range 23-652; Range is printed for the immunogen/panning protein; also called ErbB2; recombinant HER2 protein
- measurement.protocol: BLI, Protein A capture
Respond with the bare value in M⁻¹ s⁻¹.

Data request, read-out kon, for Hu2117HK-Mu38 (Fc fusion, scFv-hIgG1 Fc; not shown: human IgG1 Fc) scFv: EVQLVESGGGLVQPGGSLRLSCAASGFTYNNYGMSWVRQAPGKGLEWVASISGGGSYTKYPDSVKGRFTISRDNSKNTLYLQMNSLRAEDTAVYYCARDYAGFFDVWGQGTLVTVSSGGGGSGGGGSGGGGSDIQMTQSPSSLSASVGDRVTITCRSSQSLVHSNGNTYLHWYQQKPGKAPKLLIYKVSNRFSGVPSRFSGSGSGTDFTLTISSLQPEDFATYFCSQSTHVPYTFGQGTKVEIK 100000

One more binder: Hu2117HK-Mu35 (Fc fusion, name in Kabat numbering, scFv-hIgG1 Fc; not shown: human IgG1 Fc) scFv: EVQLVESGGGLVQPGGSLRLSCAASGFTYSSYGMSWVRQAPGKGLEWVASISGGGSYTKYPDSVKGRFTISRDNSKNTLYLQMNSLRAEDTAVYYCARDYAGFFDVWGQGTLVTVSSGGGGSGGGGSGGGGSDIQMTQSPSSLSASVGDRVTITCRSSQSLVHSNGNTYLHWYQQKPGKAPKLLIYKVSNRFSGVPSRFSGSGSGTDFTLTISSLQPEDFATYFCLQSTHVPYTFGQGTKVEIK 61900

One more binder: Hu2117HK-Mu20 (Fc fusion, name in Kabat numbering, scFv-hIgG1 Fc; not shown: human IgG1 Fc) scFv: EVQLVESGGGLVQPGGSLRLSCAASGFTYSSYGMSWVRQAPGKGLEWVASISGGGSYTKYPDSVKGRFTISRDNSKNTLYLQMNSLRAEDTAVYYCARDYAGFFDVWGQGTLVTVSSGGGGSGGGGSGGGGSDIQMTQSPSSLSASVGDRVTITCRSSQSLVHSSGNTYLHWYQQKPGKAPKLLIYKVSNRFSGVPSRFSGSGSGTDFTLTISSLQPEDFATYFCSQSTHVPYTFGQGTKVEIK 46500
